target_entity: recombinant pentameric gH complex (Towne strain) (human cytomegalovirus, Towne strain) (UniProt P17176)
Sequence (P17176 30-715, one chain of several): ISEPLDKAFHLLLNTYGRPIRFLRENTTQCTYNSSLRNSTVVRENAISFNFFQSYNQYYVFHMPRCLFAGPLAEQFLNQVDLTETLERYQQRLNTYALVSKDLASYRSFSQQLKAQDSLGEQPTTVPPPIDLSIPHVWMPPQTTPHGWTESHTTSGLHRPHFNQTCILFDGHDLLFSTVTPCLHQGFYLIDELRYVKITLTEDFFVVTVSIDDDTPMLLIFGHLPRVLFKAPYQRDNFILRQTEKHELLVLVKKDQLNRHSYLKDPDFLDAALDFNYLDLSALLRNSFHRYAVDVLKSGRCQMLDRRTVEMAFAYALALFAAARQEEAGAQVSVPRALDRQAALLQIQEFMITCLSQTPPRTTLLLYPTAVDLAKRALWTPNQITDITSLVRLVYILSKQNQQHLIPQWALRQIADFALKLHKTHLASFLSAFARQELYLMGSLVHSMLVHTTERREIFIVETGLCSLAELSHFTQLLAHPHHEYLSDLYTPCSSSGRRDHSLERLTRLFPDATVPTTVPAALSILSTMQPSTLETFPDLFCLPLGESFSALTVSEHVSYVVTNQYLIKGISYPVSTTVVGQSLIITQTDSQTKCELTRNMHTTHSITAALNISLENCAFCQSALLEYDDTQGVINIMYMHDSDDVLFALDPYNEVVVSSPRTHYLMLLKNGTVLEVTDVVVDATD
assay_method_text: BLI competition on His-pentamer; competitor (antibody 2): 70.7
value_kind: Pair-wise inhibition (%)

[
  {
    "binder": "2-25 (antibody, V domains shown) VH: QVQLVESGAEVKKPGALVKVSCKASGYTFTNYAIHWVRQASGQRLEWMGWINAGRGNTKYSQKFQGRVTITRDTSASTAYMELSSLRSEDAAVYFCARDESTGDYYYYMDVWGKGTTVTVSS VL: SYELTQPPSVSVSPGQTASITCSGDRLDDKYASWYQQKAGQSPVLVIYQDNKRPSGIPERFSGSNSGNTATLTISGTQAMDEADYYCQAWDSDTYVFGTGTKVTVL",
    "value_observed": 29
  },
  {
    "binder": "1-150 (antibody, V domains shown) VH: QVQLVESGGGLVKPGGSLRLSCAASGFSFSAYYMSWIRQAPGKGLEWISYISSSGNTIYYTDSVKGRFTIARDNAKNSLYLQMNSLRAEDTGLYYCARDSYSKLADIEATEAFDVWGQGTMVAVSS VL: SYELTQPPSVSVAPGKTARITCGGNNIGSKSVHWYQQKPGQAPVMVIYYDSDRPSGIPERFSGSNSGNTATLTISRVEAGDEADYYCQVWDSGSDRVVFGGGTKLTVL",
    "value_observed": -32
  },
  {
    "binder": "1-85 (antibody, V domains shown) VH: QVHLVESGGGLVKPGRSLRLSCAASGFTFSDYYMAWIRQVPGKGLEWVSFISSSGRTIYYADSVKGRFTISRDNAKDSLYLQMHSLRAEDTAVYYCARDSYSKLVDIEAIEAFDIWGRGTMVTVSS VL: SYELAQPPSVSVAPGKTATIACGGDNIGGKSVHWYLQKAGQAPVLVISYDSDRPSGIPERFSGSNSGNTATLTISRVEAGDEADYFCQVWDRHGDHVVFGGGTKLTVL",
    "value_observed": 36
  }
]
